- System: SK-MEL-5 melanoma
- run-description: NCI-60 one-dose screen, 48 h
- experimental-conditions: 10 µM
The panel holds about 83,000 compounds, 20% with a hit somewhere; the sample as a whole holds those more often. The source made the active and inactive calls. Rule for the calls: active = growth percent below 10; inactive = the rest.
Your answer must be one of the following: active, inactive

Name the outcome recorded for CCCCCCCCCCCCCCCCCBr in the assay.
inactive

What did this assay record as the result for Cc1cc(C)c2nc(C)c(C)[n+]([O-])c2c1 ?
inactive

---
Could you please tell me the result logged for Cc1nc(N)sc1Sc1nc2ccc(Cl)cc2c(=O)n1-c1ccc(Oc2ccccc2)cc1 in this assay?
inactive

Please state the recorded outcome for this molecule: CCN1CCN(c2ccc(Nc3ncnc4c3nnn4CCc3cc(OC)cc(OC)c3)cc2)CC1
inactive

What did this assay record as the result for C/C(=N\NC(=S)N1CCCC1)c1ccccn1 ?
active

Assay outcome for C[C@]12CC[C@H]3[C@@H](CC=C4C[C@@H](O)CC[C@@]43C)[C@@H]1CC[C@@H]2C(=O)C/C=N/O : what was it?
inactive

----------
- Test system: SK-OV-3 ovarian
- run-description: NCI-60 one-dose screen, 48 h
- experimental-conditions: 10 µM
The panel holds about 83,000 compounds, 20% with a hit somewhere; the sample as a whole holds those more often. Calls of active or inactive are those of the source. Rule for the calls: active = growth percent below 10; inactive = the rest.
Pick one: Y (active), N (inactive)

Lab log entry: COc1ccc(C(=O)/C=C/c2cc(-c3ccc(OC)c(OC)c3)n[nH]2)cc1OC — outcome as called in the assay?
N

State the result this test recorded for N=C(N)c1ccc(-c2ccc(-c3cccs3)s2)nc1 .
N

Call for entry COc1cccc(-c2nnc(COc3ccc(-c4nc5ccccc5[nH]4)cc3OC)o2)c1 :
N

Could you check what this test reported for O=NN(CCCl)C(=O)NCc1ccc(-c2ccc(CNC(=O)N(CCCl)N=O)cc2)cc1 ?
N

Assay outcome for CCOC(=O)c1cc2c(n1Cc1ccccc1)-c1oncc1CC2 : what was it?
N

Name the outcome recorded for O=C(c1ccccc1)C(Nc1ccccc1)c1ccccc1 (centres undefined) in the assay.
N

Give the logged outcome of this assay for the following molecule: O=C(Nc1cccc([N+](=O)[O-])c1)NN1CCCCCC1
N

Called result for Cc1ccc2nc(-c3ccc(OCC(=O)N=Nc4c(O)[nH]c5ccccc45)cc3)[nH]c2c1
N

Assay outcome for O=C(Nc1cccc(-c2nc3ccccc3[nH]2)c1)c1cccc(NC(=O)c2ccco2)c1 : what was it?
N

Fill in: this test's call for COc1ccc(-c2csc(NC(=O)CO[N+](=O)[O-])n2)cc1 is ___
N

----------
- Test system: OVCAR-4 ovarian
- run-description: NCI-60 one-dose screen, 48 h (100 = growth as untreated, 0 = no growth, -100 = all killed)
- experimental-conditions: 10 µM
Compounds without any hit were thinned out: in the full panel of roughly 83,000, 20% have a hit.
Recorded growth, one value per entry.
Answer format: numeric, % implied, no suffix.

Simply: COc1cccc2c1O/C(=C\c1ccc([N+](=O)[O-])s1)C2=O , OVCAR-4 ovarian, growth = 74.2

Next molecule, please.
Given the molecule C=CCNC(=S)NN and test system OVCAR-4 ovarian, the measured growth is 96.8

----------
- Test system: NCI-H460 lung
- run-description: NCI-60 one-dose screen, 48 h (100 = growth as untreated, 0 = no growth, -100 = all killed)
- experimental-conditions: 10 µM
About 83,000 compounds went through this panel and 20% of them were active in at least one assay; those are over-represented in the sample as a whole.
Overview of recorded growth for various compounds
Write the answer as a number in %, unit excluded.

Below: 5 compounds and their reported growth.
growth recorded for this compound, COc1cc(OC)cc(-c2n/c(=C\c3c(O)[nH]c4ccc(OC)cc34)cc3c2=Nc2ccccc2-3)c1 , is 12.8

Given item CCOC(=O)[C@@H](Cc1ccccc1)NC(=O)c1[nH]c2ccc(Cl)cc2c(=O)c1C , the value recorded as its growth is 103

Entry under test: CCOC(=O)C(=O)Cc1cccnn1 . Its growth was 116

// sample CCN(CC)CC(O)Cc1ccc(OC)cc1 (stereo unspecified) , its growth was 117

growth for CCOc1nc(-c2ccccc2)cc2c(O)c(C(=O)N/N=C/c3ccc(OC)cc3)[nH]c(=O)c12 is 101

Continue with the compound presented below.
growth for CN(C)CCCN1c2ccccc2Sc2ccc(C(F)(F)F)cc21 is 13.8
